Assay: APR_HepG2_MicrotubuleCSK_72hr: Apredica 72-hour HepG2 Assay for Microtubule CSK Stabilty (AID 2282919)
Conditions: HepG2 microtubule cytoskeleton, high-content imaging, actives raise or lower the signal
The source made the active and inactive calls. Rule for the calls: active = hit-call score of the fitted dose curve at least 0.9, where 1 is the maximum; inactive = score below 0.9.
Write down the outcome that applies. Available outcomes: T (active), F (inactive)

Request: Which outcome did this test record for the molecule CCCCCCCCCCCCCCOS(=O)(=O)O ?
Result: F

Request: For O=C1c2c(O)cccc2Cc2cccc(O)c21 , which call appears in the assay record?
Result: F

Request: What was the test verdict on COC(=O)[C@H]1[C@H]2C[C@@H]3c4[nH]c5cc(OC)ccc5c4CCN3C[C@H]2C[C@@H](OC(=O)c2cc(OC)c(OC)c(OC)c2)[C@@H]1OC ?
Result: T

Request: Write down the call the test reported for this molecule. Item: OCC(CO)n1cnc(-c2ccc(F)cc2)c1-c1ccnc(Oc2ccccc2)n1
Result: F

Request: What is the recorded call for this molecule in the test? O=C(O)CN(CC(=O)O)CC(=O)O
Result: F

* * *

Read-out: Pyruvate Dehydrogenase Kinase 4 (PDK4), PDK4 (gene 5166)
Assay: LTEA_HepaRG_PDK4: Life Technologies and Expression Analysis (LTEA) Assay for Pyruvate Dehydrogenase Kinase 4 (PDK4) using HepaRG (AID 2283525)
Details: mRNA level, 48 h; actives raise or lower the signal
Activity calls are given as the source filed them. The calls were made as follows: active = hit-call score of the fitted dose curve at least 0.9, where 1 is the maximum; inactive = score below 0.9.
Result category, one only: t = active, f = inactive

Request: What classification did CC(C)(C)c1ccccc1 end up with in this test?
Result: f

Request: Which outcome did this test record for the molecule S=c1[nH]c2ccccc2s1 ?
Result: f

Request: Returns: the outcome recorded for CCCC[C@H]1CN(CC2CCOCC2)C(=O)OC12CCN(C1(C)CCN(C(=O)c3c(C)ncnc3C)CC1)CC2 in this assay.
Result: f

Request: Please indicate how the test categorized O=[Si]=O .
Result: f

Request: Please share the test call associated with COC(=O)CCC(=O)OC .
Result: f

Request: Could you check what this test reported for CCCCCCCCCCCCCCOS(=O)(=O)O ?
Result: t

Request: # fetch the recorded call for NCCOCCOCCN here
Result: f

Request: Assay outcome for OCC(CO)n1cnc(-c2ccc(F)cc2)c1-c1ccnc(Oc2ccccc2)n1 : what was it?
Result: f

Request: Write down the call the test reported for this molecule. Item: CC(=O)[C@@]1(O)CC[C@H]2[C@@H]3CCC4=CC(=O)CC[C@]4(C)[C@H]3CC[C@@]21C
Result: f

Request: Identify the outcome logged in this assay for the molecule shown: CO[C@@H]1COCC[C@@H]1N[C@@H]1CC[C@@](C(=O)N2CCc3ncc(C(F)(F)F)cc3C2)(C(C)C)C1
Result: f

Request: Test call, this molecule: Cc1ccc(-c2cc(C(F)(F)F)nn2-c2ccc(S(N)(=O)=O)cc2)cc1
Result: f

Request: Call for entry COc1ccc(C(=O)Nc2nc3ccccc3c(NCc3ccccc3)c2C#N)cc1 :
Result: f

Request: Identify the outcome logged in this assay for the molecule shown: c1ccc2occc2c1
Result: f

Request: Hi, do you know how CCOCCOCCO came out in this test?
Result: f

Request: What was the test verdict on CCCCc1nc2cccnc2n1Cc1ccc(-c2ccccc2-c2nnn[nH]2)cc1 ?
Result: t

Request: Write down the call the test reported for this molecule. Item: CCCCCCCCCCCCCCCCO
Result: t

Request: Assay result, entry CC(C)NCC(O)c1ccc(O)c(O)c1 (stereo not given) — outcome?
Result: f

Request: # fetch the recorded call for Cn1cnc2c1c(=O)[nH]c(=O)n2C here
Result: f

Request: Test call for this molecule, please: N[C@@H](Cc1c[nH]c2ccccc12)C(=O)O
Result: f

Request: How was CC(=O)OCC(COC(C)=O)OC(C)=O classified in this test?
Result: f

Request: // outcome(item) with item = CSc1ccc(Oc2ccc(S(N)(=O)=O)cc2CN(C)C)cc1C
Result: f

Request: Please state the recorded outcome for this molecule: O=C1c2c(O)cccc2Cc2cccc(O)c21
Result: f

Request: Look up the recorded call for Cc1ccc(C(C)(C)C)c(O)c1 in this test.
Result: f

Request: Just curious, what result did OCC(O)CO get here?
Result: f

Request: Lab log entry: COC(=O)[C@H]1[C@H]2C[C@@H]3c4[nH]c5cc(OC)ccc5c4CCN3C[C@H]2C[C@@H](OC(=O)c2cc(OC)c(OC)c(OC)c2)[C@@H]1OC — outcome as called in the assay?
Result: f

Request: Could you please tell me the result logged for C=CCc1ccc(OC)c(OC)c1 in this assay?
Result: f

Request: // param item: COc1ccc(OC(F)(F)F)cc1CN[C@H]1CCCN[C@H]1c1ccccc1 ; yields the recorded call
Result: f

Request: Just curious, what result did Oc1ccc(O)cc1 get here?
Result: f

Request: Which outcome did this test record for the molecule Oc1ccccc1O ?
Result: f

Request: Status in this test for Cc1c(C)c2c(c(C)c1O)CCC(C)(COc1ccc(CC3SC(=O)NC3=O)cc1)O2 (stereo not given) ?
Result: f

Request: Call for entry COC(=O)CCCC(=O)OC :
Result: f

Request: What classification did CCCCC(CC)CO (stereo not given) end up with in this test?
Result: f

Request: Dear all, I need the recorded test outcome for CC(=O)CC(c1ccccc1)c1c(O)c2ccccc2oc1=O (stereo not given) , thank you.
Result: f

Request: Any idea what this test logged for CCCCCCC(CCCCCCCCCCC(=O)OCC(COC(C)=O)OC(C)=O)OC(C)=O (stereo not given) ?
Result: f

Request: State the result this test recorded for O=C(O)CN(CC(=O)O)CC(=O)O .
Result: f

Request: Which outcome was assigned to CCC(C)N(C)C(=O)c1cc2ccccc2c(-c2ccccc2Cl)n1 (stereo not given) in this test?
Result: t

Request: Lab log entry: C=CCCCCCCCCCCCC — outcome as called in the assay?
Result: f

Request: Check the results log: what was the call for C/C=C/c1ccc(OC)cc1 ?
Result: f

Request: What call does the record list for CCCC(=O)O ?
Result: f

Request: Status in this test for NC1CCCCC1 ?
Result: f

Request: Please let me know the test result on file for O=C(O)CC(O)(CC(=O)O)C(=O)O .
Result: f

Request: Identify the outcome logged in this assay for the molecule shown: CCCCCCCCCC[N+](C)(C)[O-]
Result: f

Request: What outcome does the record of this test show for Cc1occc(=O)c1O ?
Result: f

Request: Per the records of this test, what outcome belongs to O=NO ?
Result: f

Request: GET /call?item= NC=O returns the recorded outcome of this test.
Result: f

Request: Which outcome did this test record for the molecule C#CC(O)C(CC)CCCC (stereo not given) ?
Result: f

Request: Tell me the assay call for CCCCCCC(C=O)=Cc1ccccc1 please.
Result: f

Request: Can you look up the reported call for CC(=O)O[C@]1(C(C)=O)CC[C@H]2[C@@H]3C=C(Cl)C4=CC(=O)[C@@H]5C[C@@H]5[C@]4(C)[C@H]3CC[C@@]21C for me?
Result: f

Request: Hi, sorry to bother you, what did the test record for CC(=O)S[C@H](C(=O)N[C@H]1Cc2ccccc2[C@H]2CCC[C@@H](C(=O)O)N2C1=O)C(C)C ?
Result: f

Request: # lookup: test call for C/C=C/C=C/C(=O)O
Result: f
